TEST_TARGET: Wild-type Pgp (Homo sapiens, UniProt P08183)
Sequence (P08183 whole entry): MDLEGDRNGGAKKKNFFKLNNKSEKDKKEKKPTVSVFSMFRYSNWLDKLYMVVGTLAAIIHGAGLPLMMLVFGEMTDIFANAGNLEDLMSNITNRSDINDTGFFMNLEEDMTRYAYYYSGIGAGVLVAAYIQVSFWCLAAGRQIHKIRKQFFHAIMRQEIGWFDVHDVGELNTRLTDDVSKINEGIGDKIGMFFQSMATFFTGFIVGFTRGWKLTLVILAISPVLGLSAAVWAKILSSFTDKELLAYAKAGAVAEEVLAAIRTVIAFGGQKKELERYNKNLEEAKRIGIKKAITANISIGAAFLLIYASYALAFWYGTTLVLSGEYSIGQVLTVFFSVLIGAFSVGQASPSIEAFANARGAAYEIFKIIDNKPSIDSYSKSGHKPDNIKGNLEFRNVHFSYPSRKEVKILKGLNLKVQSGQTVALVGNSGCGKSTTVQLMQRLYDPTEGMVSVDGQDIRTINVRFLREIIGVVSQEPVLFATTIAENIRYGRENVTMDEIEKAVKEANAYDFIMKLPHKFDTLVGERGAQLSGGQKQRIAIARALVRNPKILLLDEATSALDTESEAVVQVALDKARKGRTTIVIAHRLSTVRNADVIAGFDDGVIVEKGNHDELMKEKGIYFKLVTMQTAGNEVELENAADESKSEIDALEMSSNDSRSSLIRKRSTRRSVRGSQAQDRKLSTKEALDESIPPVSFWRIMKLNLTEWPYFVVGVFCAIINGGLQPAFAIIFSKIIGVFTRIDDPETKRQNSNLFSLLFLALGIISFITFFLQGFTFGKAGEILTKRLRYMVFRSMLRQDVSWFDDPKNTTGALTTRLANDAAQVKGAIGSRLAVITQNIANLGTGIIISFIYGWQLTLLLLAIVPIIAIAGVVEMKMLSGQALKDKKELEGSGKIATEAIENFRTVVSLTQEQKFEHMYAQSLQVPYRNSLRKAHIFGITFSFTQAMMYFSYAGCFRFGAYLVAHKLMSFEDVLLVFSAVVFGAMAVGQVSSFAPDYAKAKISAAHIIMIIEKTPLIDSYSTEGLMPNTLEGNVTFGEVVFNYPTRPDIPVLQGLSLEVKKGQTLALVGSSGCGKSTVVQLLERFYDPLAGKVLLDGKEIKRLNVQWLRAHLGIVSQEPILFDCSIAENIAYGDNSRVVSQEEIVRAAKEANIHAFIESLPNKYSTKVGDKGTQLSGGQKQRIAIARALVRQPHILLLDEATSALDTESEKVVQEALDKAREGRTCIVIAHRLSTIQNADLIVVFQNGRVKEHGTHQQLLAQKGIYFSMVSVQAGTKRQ
METHOD_NOTES: UIC2 mAb labeling of permeabilized NIH 3T3 cells: apparent affinity of nucleotide binding
SETTINGS: read-out: Kd;ATP, dissociation constant of ATP from inward-facing Pgp; estimated with Eq. 7 of the kinetic model from KA and T2/T1;min

| STRUCTURE_NOTATION | TEST_TARGET | Kd |
| --- | --- | --- |
| Nc1ncnc2c1ncn2[C@@H]1O[C@H](COP(=O)(O)OP(=O)(O)OP(=O)(O)O)[C@@H](O)[C@H]1O | Wild-type Pgp (Homo sapiens, UniProt P08183) | ~700 µM |
